assay: qHTS assay to identify small molecule agonists of the RXR signaling pathway - cell viability counter screen (AID 1159529); conditions: RXR-alpha-bla HEK293T viability, CellTiter-Glo, 16 h; series mostly up to 76.8 µM;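 also: HEK 293T cells carrying an RXR-alpha UAS beta-lactamase reporter; nearly all actives have a fitted effect of over 50% in size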
Results filed as inconclusive are left out. The source made the active and inactive calls. Calls follow the shape of the dose curve; as a rule, active = well fitted cell-killing curve with a large enough effect in the repeat runs; inconclusive = weak or mixed curves, or effect the other way; inactive = no such curve, though single readings can be large or run the other way.
READOUT KIND: activity change, negative = cytotoxicity

Observe how each entry below is paired with its result.
COMPOUND	activity change, negative = cytotoxicity
CCCOC(=O)C(C)O (stereo not drawn)	inactive
CC(C)NCC(O)COc1ccc(COCCOC(C)C)cc1 (stereo not drawn)	inactive
O=C1CCCC(=O)O1	inactive
CC(C)C(=O)OCc1cccc(OC(=O)[C@@H]2N3C(=O)[C@@H](NC(=O)Cc4ccccc4)[C@H]3SC2(C)C)c1	inactive
CC(C)=CCOC(=O)c1ccccc1	inactive

Query: Request the reported activity change, negative = cytotoxicity associated with "CC(C)N(c1ccccc1)C(C)C"
Response: inactive

Query: Request the reported activity change, negative = cytotoxicity associated with "O=C1c2cccc3c2[C@H](CCC3)CN1[C@@H]1CN2CCC1CC2"
Response: inactive

Query: Request the reported activity change, negative = cytotoxicity associated with "CCO[Si](CCCS)(OCC)OCC"
Response: inactive

Query: Request the reported activity change, negative = cytotoxicity associated with "CC(=O)Nc1cccc(C)c1"
Response: inactive

Query: Request the reported activity change, negative = cytotoxicity associated with "O=C(OCC1(COC(=O)c2cccnc2)CCCC(COC(=O)c2cccnc2)(COC(=O)c2cccnc2)C1O)c1cccnc1"
Response: inactive

Query: Request the reported activity change, negative = cytotoxicity associated with "COc1ccc2c(c1OC)C(=O)O[C@@H]2[C@H]1c2c(cc3c(c2OC)OCO3)CCN1C"
Response: inactive

Query: Request the reported activity change, negative = cytotoxicity associated with "O=C(O)c1ccc(Cl)cc1Cl"
Response: inactive

Query: Request the reported activity change, negative = cytotoxicity associated with COP(=O)(OC)OC(c1ccc(Cl)cc1)P(=O)(OC)OC (stereo not drawn)
Response: inactive
